# Test system: MOLT-4 leukemia
# protocol: NCI-60 one-dose screen, 48 h (100 = growth as untreated, 0 = no growth, -100 = all killed)
# condition-parameters: 10 µM unless noted
Compounds without any hit were thinned out: in the full panel of roughly 83,000, 20% have a hit.
growth less than 40% is condition met; growth greater than or equal to 40% is condition not met.

Some solved cases for reference:
State whether 40% exceeds growth recorded for O=C(NC1CCN(Cc2ccccc2)CC1)c1cc2nc(-c3ccc(Cl)s3)cc(C(F)(F)F)n2n1 .
condition met

hey, is growth for C=C(C)CCC(C)N1CCC(N2CCC(C(=O)NCCc3ccccc3)CC2)CC1 (stereo not given) lower than 40% or not?
condition not met

New cases:
# strict comparison: is reported growth < 40%? input = CCOC(=O)c1c(Cl)c2c(n1Cc1ccccc1)-c1oncc1CCC2
condition not met

Lab log: compare recorded growth with 40%; is it strictly lower for COc1c2ccoc2c(/C=C/C=O)c2oc(-c3ccccc3)cc(=O)c12 ?
condition met

Hello, I'm reviewing records and need to know if growth of Clc1ccc(Nc2nnc(-c3ccc4c(c3)OCO4)o2)cc1 is below 40%. Could you check?
condition not met

Identify whether the compound Cc1ccc(CN2CCC(C(=O)Nc3ccc(-c4cc5ccccc5[nH]4)cc3)CC2)o1 records growth below 40%.
condition met

Problem: For the compound O=c1oc2ccc(-c3ccc(F)cc3F)cc2c(=O)n1-c1cccc(C(F)(F)F)c1 , is growth under 40%?
condition met

Quick check: does O=C(CN1C(=O)/C(=C\c2ccc(Cl)cc2)SC1=S)Nc1ncc(Cc2ccc(Cl)cc2)s1 have growth under 40%?
condition not met

Hello, I'm reviewing records and need to know if growth of O=C(COc1cc(O)c2c(=O)cc(-c3ccccc3)oc2c1)Nc1ccccc1C(F)(F)F is below 40%. Could you check?
condition not met

Please determine if C=CCN1C(=O)/C(=c2\sc3n(c2=O)NC2C(N=3)N(CC)C(=O)N2CC)c2ccccc21 (stereo not given) is below 40% in terms of growth.
condition met

# strict comparison: is reported growth < 40%? input = O=c1c2cc(F)ccc2sc2c(Nc3ccncc3)nc3ccccc3c12
condition met

Dear reviewer, please state whether O=C(/C=C/c1ccc(Cl)cc1)c1ccc(Nc2nc(NCCO)nc(Nc3ccc(Cl)cc3)n2)cc1 has growth strictly beneath 40%.
condition not met

For this compound, is growth lower than 40%? CC[C@@H](C)[C@H](NC(=O)Cn1cc(CNC(=O)[C@@H](NC(=O)OCc2ccccc2)C(C)C)nn1)C(=O)O
condition not met

Could you please tell me whether growth recorded for O=C(COc1cc(O)c2c(=O)cc(-c3ccccc3)oc2c1)Nc1ccccc1 is less than 40%?
condition not met

* * *

# Tested on: SF-295 CNS
# protocol: NCI-60 one-dose screen, 48 h (100 = growth as untreated, 0 = no growth, -100 = all killed)
# condition-parameters: 10 µM unless noted
About 83,000 compounds went through this panel and 20% of them were active in at least one assay; those are over-represented in the sample as a whole.
So basically, if growth comes in under 70% it's MET, and if it's 70% or more it's NOT MET.

Solved entries:
Input COc1cc2c(cc1OC)C(=O)C(CC1CCN(C(=O)Nc3ccc(C)cc3)CC1)C2 (stereo unspecified) ; condition: growth strictly below 70%. Does it hold?
NOT MET

A record lists Cc1ccc(Cn2c(N3CCC(C(=O)NCc4cccs4)CC3)nc3ccccc32)cc1 . Is its growth below 70%?
NOT MET

Below 70% on growth? Entry Cc1ccc(NCCNCC(O)CO)c2c(=O)c3ccccc3sc12 (stereo unspecified)
MET

Just wondering, is growth of COc1cc(C(=O)O/N=C(\N)Cc2cccc3ccccc23)cc(OC)c1OC below 70%?
MET

Identify whether the molecule CCOc1c(Br)cc(C2C(C(=O)OC)=CN(C)C=C2C(=O)OC)cc1OC records growth below 70%.
MET

Please let me know if O=c1oc2ccc(I)cc2c(=O)n1-c1ccc(I)cc1F shows growth below 70%.
MET

Decide: growth of COc1cc(CNC(=O)c2ccsc2Nc2ccnc(C(F)(F)F)c2)ccc1O strictly below 70%?
NOT MET

For O=c1oc2ccc(I)cc2c(=O)n1-c1ccc(Br)cc1F , is the recorded growth below the cut-off of 70%?
MET

---
Criterion: growth strictly below 70%. Is it met by O=c1oc2ccc(F)cc2c(=O)n1-c1ccc(F)cc1F ?
MET

Could you please tell me whether growth recorded for CC/C(=C(\CC)c1ccc(OCC[N+](C)(C)C)cc1)c1ccc(OC)cc1 is less than 70%?
NOT MET

Determine if COc1ccc(-c2nc(-c3ccccn3)c(-c3ccccn3)n2CC(C)C)cc1OC1CCCC1 shows growth strictly lower than 70%.
MET

Please check: growth for COc1ccc2c(c1)C=C1CSCC3=Cc4cc(OC)ccc4OC13O2 , strictly under 70% or not?
MET

Consider the molecule COc1cc(/C=C/C(=O)c2c(C)nc3ccccc3c2/C=C/c2ccccc2)cc(OC)c1OC . Is its growth strictly less than 70%?
MET

Field: below-cutoff. Rule: recorded growth strictly less than 70%. Subject: CSc1nc2c(c(=O)n1C)N=C1c3ccccc3C(=O)C1C(c1ccccc1)N2 (stereo unspecified)
MET

Consider COc1ccc(-c2nc(-c3ccccc3)c(-c3ccccc3)[nH]2)cc1OC1CCCCC1 . Does its growth lie strictly below 70%?
NOT MET

Check if growth falls below 70% for COc1ccc(Br)c(/C=C2\SC(=Nc3ccc(O)cc3)NC2=O)c1 .
NOT MET

Record NCCOc1ccccc1/C=C1\c2ccccc2-c2ccc([N+](=O)[O-])cc21 : is its growth strictly below 70%?
MET

Hello, I'm reviewing records and need to know if growth of CCOC(=O)c1sc(-c2ccc(OS(=O)(=O)c3cccs3)c(C=O)c2)nc1C is below 70%. Could you check?
MET

Item COC(=O)C1(C)COP(=O)(Nc2ccc(OC)cc2)OC1 (stereo unspecified) : growth beneath 70%, strictly?
NOT MET

# strict comparison: is reported growth < 70%? input = Clc1ccc(Nc2scc3[n+]2CCC3)cc1
NOT MET

* * *

For each entry below, report its growth value.
# Test system: TK-10 renal
# protocol: NCI-60 one-dose screen, 48 h (100 = growth as untreated, 0 = no growth, -100 = all killed)
# condition-parameters: 10 µM unless noted
This is part of a sample that, as a whole, favours compounds with a hit. Of some 83,000 tested, about 20% had one in any assay.
One number for each entry, in %.

These solved cases illustrate the format of a correct answer.
Data request, read-out growth, for CC1(O)COCCCCOc2c(CN)cccc2NC(=O)c2nc(cnc2N)-c2ccc(cc2)S(=O)(=O)C(C)(C)C1 (stereo not given)
-36.2

May I ask what growth has been recorded for CN1CCN(c2nc(Nc3ccc(O)cc3)nc3ccccc23)CC1 ?
71.9

What measured growth goes with COc1ccc(N)c(-c2cc3c(c4c2[nH]c2ccc(OC)cc24)CCCC3)c1 ?
114

Query (molecule): COc1ccc(/C=C2\N=C(c3ccccc3)N(c3ccc(-c4nc5ccc(C)cc5s4)cc3)C2=O)cc1 ; field requested: growth
104

Others:
Quick one: growth for Cn1c(/C=C(\C#N)c2ccccc2)nc2c(N3CCOCC3)nc(Cl)nc21 ?
-63.6

* * *

# System: K-562 leukemia
# protocol: NCI-60 one-dose screen, 48 h
# condition-parameters: 10 µM unless noted
About 83,000 compounds went through this panel and 20% of them were active in at least one assay; those are over-represented in the sample as a whole. Active and inactive are the calls of the source. How the source made its calls: active means growth percent below 10; inactive means the rest.
Can you answer with just one of these options? true (1) for active, false (0) for inactive

I would be grateful if you could indicate the recorded call for O=c1c2cc(F)cc(Cl)c2sc2c(Cl)nc3ccccc3c12 .
false (0)

Next:
// param item: CN1C(=O)N(C)C2C1NN=c1s/c(=C\c3ccc(Cl)cc3Cl)c(=O)n12 (stereo unspecified) ; yields the recorded call
true (1)

# outcome recorded in this test, key = COc1cc(C(=O)O/N=C(\N)Cc2cccc3ccccc23)cc(OC)c1OC
true (1)

Called result for COc1cc(C=C2C(=O)N(C)C(=O)N(C)C2=O)cc(CN2CCCCC2)c1O
false (0)

How did this test come out for O=c1c2cc(F)ccc2sc2c(Nc3ccncc3)nc3ccccc3c12 ?
true (1)

What classification did Cc1[nH]c2ccccc2c(=O)c1CC=C(Cl)Cl end up with in this test?
true (1)

Please let me know the test result on file for COc1cccc(/C=C/C(=O)c2c(C)nc3ccccc3c2/C=C/c2ccccc2)c1OC .
true (1)

Per the records of this test, what outcome belongs to Cc1ccc(C)c(-c2csc(Nc3ccc(C)c(C)c3)n2)c1 ?
true (1)

* * *

# Test system: SW-620 colon
# protocol: NCI-60 one-dose screen, 48 h
# condition-parameters: 10 µM unless noted
Compounds without any hit were thinned out: in the full panel of roughly 83,000, 20% have a hit. The source made the active and inactive calls. Rule for the calls: active = growth percent below 10; inactive = the rest.
The reply should name one outcome from active, inactive

# lookup: test call for COc1ccc(C2=Nn3c(NN)nnc3SC2)cc1
inactive

// return assay outcome for COc1c(B(O)O)cccc1-c1nc2ccc3n[nH]c(F)c3c2c2c1CCCC2
inactive

// return assay outcome for O=C1Nc2ccccc2/C1=C/c1ccc[nH]1
inactive

GET /call?item= FC(F)(F)c1cccc(Nc2nc(-c3ccccc3)nc3ncccc23)c1 returns the recorded outcome of this test.
active

# fetch the recorded call for CC(=O)SC1CC(=O)C=C2CCC3C4CCC(=O)OC4(C)CCC3C21C (configuration not stated) here
inactive

New cases:
Outcome? FC(F)(F)c1cccc(CNC2CCN(CCc3ccccc3)CC2)c1
inactive

Hi team, can someone confirm the assay call for Cc1cc2c(c(C)c1Cl)C(=O)/C(=C/c1ccco1)O2 ?
inactive

State the result this test recorded for CN1C(=O)N(C)C2(c3ccccc3)n3c(s/c(=C\c4ccccc4)c3=O)=NNC12c1ccccc1 (configuration not stated) .
inactive

Could you kindly confirm the outcome this assay logged for COC(=O)c1c2c(c(C)[n+]([O-])c1C)C(=O)C(NCc1ccc(Br)cc1)=CC2=O ?
active

Hi, sorry to bother you, what did the test record for CNCCNc1nc2ccccc2c2c(=O)c3cccc(OC)c3sc12 ?
active

Record lookup: outcome of this test for CCCCCCc1cc2cc(-c3nc4ccccc4[nH]3)c(=Nc3ccccc3C)oc2cc1O ?
inactive

Which outcome did this test record for the compound S=C1NC2(c3ccccc3)CCC(=S)N2c2ccccc21 (configuration not stated) ?
inactive
